# credit: patent US20050101482A1

- Assay details: Concentration of Erythromycin in the blood of rabbits
- Type: in vivo
- Condition details: rabbit, 1.5 hours after the oral ingestion of 40 mg per head, groups taking and not taking the adsorbent alike
Readout label: concentration at 1.5 h

IN: For the compound shown here, `CC[C@H]1OC(=O)[C@H](C)[C@@H](O[C@H]2C[C@@](C)(OC)[C@@H](O)[C@H](C)O2)[C@H](C)[C@@H](O[C@@H]2O[C@H](C)C[C@H](N(C)C)[C@H]2O)[C@](C)(O)C[C@@H](C)C(=O)[C@H](C)[C@@H](O)[C@]1(C)O` , give the reported concentration at 1.5 h.
OUT: 120 to 130 ng/mL
